- Tested on: Escherichia coli
- Protocol: Inhibition of Escherichia coli DHDPS-catalyzed condensation of pyruvate and aspartate semi-aldehyde at 5 mM measured after 1 min by UV-spectrophotometric analysis
Measured attribute: inhibition (%)
# number only, unit % dropped from output

Please review the following examples before continuing.
COC(=O)C(=O)c1cccc(C(=O)C(=O)OC)c1 : 2
COC(=O)/C(=N\O)c1cccc(/C(=N/O)C(=O)OC)c1 : 15
O=C(O)C(=O)c1cccc(C(=O)C(=O)O)c1 : 49
COC(=O)C(=O)c1cccc(C(=O)C(=O)OC)c1O : 10
O=C(O)/C(=N\O)c1cccc(/C(=N/O)C(=O)O)c1 : 23

Now turn to the next compound.
// recorded inhibition for O=C(O)C(=O)c1cccc(C(=O)C(=O)O)c1O : 10
